Collected set of IC50 measured with Histone deacetylase 4 (Homo sapiens, UniProt P56524) across studies.

Use these answered entries as a reference point.
item-smiles | study-target | IC50
CC(=O)Nc1ccc(C(=O)Nc2ccc(F)cc2N)cc1 | Histone deacetylase 4 (Homo sapiens, UniProt P56524) | > 33000 nM
COc1ccc2c(c1)C(=O)N(CCCCCC(=O)NO)c1ccccc1S2 | Histone deacetylase 4 (Homo sapiens, UniProt P56524) | > 10000 nM
Cc1c(F)cccc1[C@]1(C(=O)NO)Cc2cnn(C(C)C)c2C1 | Histone deacetylase 4 (Homo sapiens, UniProt P56524) | 67 nM

# input Observed IC50 on Histone deacetylase 4 (Homo sapiens, UniProt P56524) for `Cc1c(F)cccc1[C@]1(C(=O)NO)CCc2c1cnn2Cc1ccccc1` , please.
# output 27 nM

# input Observed IC50 on Histone deacetylase 4 (Homo sapiens, UniProt P56524) for `O=C(NO)c1cc(-c2cncc(Cl)c2)nn1-c1ccccc1` , please.
# output 4900 nM

----------
Collected set of IC50 measured with Histone deacetylase 4 (Homo sapiens, UniProt P56524) across studies.
Your answer should be a plain number; it is taken to be in nM.

Use these answered entries as a reference point.
item-smiles | IC50, nM
Cc1c(F)cccc1[C@]1(C(=O)NO)Cc2cnn(-c3ccc(OC(F)F)cc3)c2C1 | 109
O=C(NO)c1ccc(Cn2nnc(-c3ccccc3F)n2)cc1 | 1910
O=C(NO)c1cc(-c2cccc3ccsc23)nn1-c1ccccc1 | 120

Next molecule, please.
# input Observed IC50 on Histone deacetylase 4 (Homo sapiens, UniProt P56524) for `Cc1ccccc1-c1cc(C(=O)NO)n(-c2ccccc2)c1` , please.
# output 1400

----------
Collected set of pIC50 measured with Histone deacetylase 4 (Homo sapiens, UniProt P56524) across studies.
Answer as the number alone; pIC50 is minus log10 of concentration in mol/L.

Use these answered entries as a reference point.
molecule | pIC50
Cc1c(F)cccc1C1(C(=O)NO)CCc2cnc(C3CC3)nc2CC1 (stereo not drawn) | 5.89
O=C(NO)c1ccc(CN(C(=O)N2CCOCC2)c2cccc(Br)c2)cc1 | 5.16
CN(Cc1ccc(/C=C/C(=O)NO)cc1F)CC12CC3CC(CC(C3)C1)C2 | 4.69
Cc1c(F)cccc1[C@]1(C(=O)NO)Cc2cnn(C3CC3)c2C1 | 7.32
Cc1c(F)cccc1C1(C(=O)NO)CCc2nn(Cc3ccc(F)cc3)cc2C1 (stereo not drawn) | 6.22

# input Observed pIC50 on Histone deacetylase 4 (Homo sapiens, UniProt P56524) for `O=C(NO)c1ccc(Cn2nnc(-c3cccs3)n2)cc1` , please.
# output 5.71

# input Observed pIC50 on Histone deacetylase 4 (Homo sapiens, UniProt P56524) for Cc1c(F)cccc1C1(C(=O)NO)CCc2ncncc2C1 (stereo not drawn) , please.
# output 5.43

----------
Collected set of log10(IC50) measured with Histone deacetylase 4 (Homo sapiens) across studies.
Short version: log10 scale, IC50, nM.

Use these answered entries as a reference point.
compound | log10(IC50)
Cc1c(F)cccc1C1(C(=O)NO)CCc2nc(C3CC3)sc2C1 (centres unmarked) | 2.89
O=C(NO)c1ccc(Cc2nnc(-c3ccc(F)cc3F)o2)cc1 | 3.59
O=C(NO)c1cc(C2=CCCC2)nn1-c1ccccc1 | 3.43
O=C(CCCCCCN(c1ccccn1)c1ccccn1)NO | 2.49

Next compound, please.
# input Name the reported log10(IC50) value associated with the compound `Cc1c(F)cccc1[C@]1(C(=O)NO)Cc2cnn(-c3ccc(F)cn3)c2C1`
# output 1.49

----------
pIC50: −log10 of the molar value.
Collected set of pIC50 measured with Histone deacetylase 4 (Homo sapiens, UniProt P56524) across studies.
Kind request: treat 6 as inclusive, so pIC50 at 6 or higher is T, anything lower is F.

Examples from the recorded data:
compound | assigned-category
Cc1cccc(-n2ncc3c2C[C@](C(=O)NO)(c2cccc(F)c2C)C3)c1 | T
Cc1c(F)cccc1C1(C(=O)NO)Cc2nc(-c3ccccc3F)sc2C1 (single isomer, unassigned) | T
O=C(NO)c1cc(F)c(Cn2nnc(-c3scc4c3OCCO4)n2)c(F)c1 | T

# input Say whether Cc1c(F)cccc1C1(C(=O)NO)CCc2nc(C3CC3)[nH]c(=O)c2C1 (centres unmarked) shows pIC50 of 6 or more.
# output F

# input Say whether `O=C(CCCCCCN(c1ccccn1)c1ccc2ccccc2n1)NO` shows pIC50 of 6 or more.
# output T

----------
Collected set of IC50 measured with Histone deacetylase 4 (Homo sapiens) across studies.
Be sure to follow the number with its unit.

Use these answered entries as a reference point.
compound | study-target | IC50
Cn1c(Sc2c(F)cc(C(=O)NO)cc2F)nnc1C(c1ccccc1)c1ccccc1 | Histone deacetylase 4 (Homo sapiens) | 1.61 µM
Cc1c(F)cccc1C1(C(=O)NO)CCc2nc(-c3cncnc3)sc2C1 (stereo not drawn) | Histone deacetylase 4 (Homo sapiens) | 1.9 µM
CN(c1ccccc1)S(=O)(=O)c1cccc(/C=C/C(=O)NO)c1 | Histone deacetylase 4 (Homo sapiens) | 3.83 µM
CCN(CC)S(=O)(=O)c1cccc(-c2nnc(Sc3ccc(C(=O)NO)cc3)n2C)c1 | Histone deacetylase 4 (Homo sapiens) | 0.481 µM
Cc1ccccc1-c1nc2c(s1)[C@](C(=O)NO)(c1cccc(F)c1C)CC2 | Histone deacetylase 4 (Homo sapiens) | 0.143 µM
Cc1cccc(-n2cc3c(n2)C[C@](C(=O)NO)(c2cccc(F)c2C)C3)c1 | Histone deacetylase 4 (Homo sapiens) | 0.076 µM
Cc1ccccc1-c1cc(C(=O)NO)n(-c2ccccc2C)n1 | Histone deacetylase 4 (Homo sapiens) | 2.4 µM
COc1ccc(-c2nc3c(s2)C[C@@](C(=O)NO)(c2cccc(F)c2C)C3)nc1 | Histone deacetylase 4 (Homo sapiens) | 0.095 µM

Next compound, please.
# input Observed IC50 on Histone deacetylase 4 (Homo sapiens) for `O=C(NO)c1cc(-c2ccccc2)nn1-c1ccccc1` , please.
# output 10.3 µM

----------
Collected set of pIC50 measured with Histone deacetylase 4 (Homo sapiens, UniProt P56524) across studies.
Answer as the number alone; pIC50 is minus log10 of concentration in mol/L.

Use these answered entries as a reference point.
compound | pIC50
Cc1c(F)cccc1[C@]1(C(=O)NO)Cc2cnc(C(F)(F)F)nc2C1 | 6.06
Cc1c(F)cccc1C1(C(=O)NO)Cc2nc(-c3cnn(C)c3C)sc2C1 (single isomer, unassigned) | 6.70
O=C(NO)c1ccc(Cn2nnc(-c3ccc(C(F)(F)F)cc3)n2)cc1 | 5.37
FC(F)c1nnc(-c2ccc(Cn3cc(-c4ccc5nc(Cl)[nH]c5c4)nn3)nc2)o1 | 5.30
O=C(NO)c1cc(-c2ccccc2Cl)nn1-c1ccccc1 | 6.42

# input Name the reported pIC50 value associated with the compound `Cc1ccc(C)c(-n2ncc3c2C[C@](C(=O)NO)(c2cccc(F)c2C)C3)c1`
# output 7.68

----------
Collected set of IC50 measured with Histone deacetylase 4 (Homo sapiens) across studies.
Your answer should be a plain number; it is taken to be in nM.

molecule | study-target | unit-tag | IC50
O=C(NO)c1cc(Cc2ccccc2)nn1-c1ccccc1 | Histone deacetylase 4 (Homo sapiens) | nM | 960
Cc1cc(C)nc(-n2cc3c(n2)C[C@](C(=O)NO)(c2cccc(F)c2C)C3)n1 | Histone deacetylase 4 (Homo sapiens) | nM | 280
CN(C)c1cccc(-c2nnc(Sc3ccc(C(=O)NO)cc3)n2C)c1 | Histone deacetylase 4 (Homo sapiens) | nM | 2650

Next molecule, please.
# input Observed IC50 on Histone deacetylase 4 (Homo sapiens) for Cc1c(F)cccc1C1(C(=O)NO)CCc2c(cnn2-c2ccccc2)C1 (single isomer, unassigned) , please.
# output 17300

----------
Collected set of IC50 measured with Histone deacetylase 4 (Homo sapiens, UniProt P56524) across studies.

Use these answered entries as a reference point.
compound | recorded-measurement
CC(C=CC(=O)NO)=CC(C)Cc1ccc(N(C)C)cc1 (stereo not drawn) | > 10 µM
CCCCc1nc2cc(/C=C/C(=O)NO)ccc2n1CCN(C)C | > 10 µM

# input Observed IC50 on Histone deacetylase 4 (Homo sapiens, UniProt P56524) for `Cn1c(N)nc2cc(-c3nnn(Cc4ccc(-c5nnc(C(F)F)o5)cc4)n3)ccc21` , please.
# output > 30 µM

----------
Collected set of pIC50 measured with Histone deacetylase 4 (Homo sapiens, UniProt P56524) across studies.
Answer as the number alone; pIC50 is minus log10 of concentration in mol/L.

compound | pIC50
Cc1c(F)cccc1[C@]1(C(=O)NO)CCc2nn(Cc3ccccc3F)cc21 | 6.15

# input Observed pIC50 on Histone deacetylase 4 (Homo sapiens, UniProt P56524) for `Cc1ncccc1-c1cc(C(=O)NO)n(-c2ccccc2)n1` , please.
# output 5.85

# input Observed pIC50 on Histone deacetylase 4 (Homo sapiens, UniProt P56524) for `Cc1c(F)cccc1[C@]1(C(=O)NO)Cc2cn(-c3ncccc3Cl)nc2C1` , please.
# output 7.19

# input Observed pIC50 on Histone deacetylase 4 (Homo sapiens, UniProt P56524) for `Cc1cc(-c2nnc(Sc3ccc(C(=O)NO)cc3)n2C)nn1C` , please.
# output 5.99
